- Test system: Plasmodium falciparum NF54 gametocytes
- experiment summary: viability index relative to DMSO control (fraction); higher = less gametocyte killing
- stated conditions: gametocyte stage: Stage IV viability index; 12.5 µM; incubation time: 72 h
// reported viability index for each item listed

compound: COc1ccc(CCN2C(=O)c3[nH]nc(-c4cc(Cl)c(C)cc4O)c3C2c2ccccc2F)cc1 (stereo not given)
viability index: 0.665
--
compound: CCc1ccc(CNCC(O)c2ccccc2)cc1 (stereo not given)
viability index: 0.703
--
compound: CC(C)=CCN1CCC(C(=O)Nc2ccc(-c3nc4ccccc4[nH]3)cc2)CC1
viability index: 0.912
--
compound: COc1cccc(NC(=O)[C@H](C(C)C)n2c(=O)[nH]c3ccccc3c2=O)c1
viability index: 0.286
--
compound: COc1cc2c(cc1OC)C1=NNC(=O)C1=NC(C)(C)C2
viability index: 0.109

* * *

- Test system: Plasmodium falciparum NF54 gametocytes
- experiment summary: viability index relative to DMSO control (fraction); higher = less gametocyte killing
- stated conditions: gametocyte stage: Stage V viability index; 12.5 µM; incubation time: 72 h

compound: CCCCOc1ccc(C(=O)Nc2cc(C)on2)cc1
viability index: 0.78
//
compound: CC(Oc1ccc(NC(=O)c2cccs2)cc1)C(=O)c1ccc(Cl)cc1 (stereo unspecified)
viability index: 0.974
//
compound: CCC(=O)Nc1nnc(Cc2ccc(OC)c(OC)c2)s1
viability index: 1.38
//
compound: COc1ccc(CNC(=O)c2cc3c(=O)n4ccccc4nc3n(CCc3ccccc3)c2=N)cc1
viability index: 1.01
//
compound: CCOc1cc2c(cc1OCC)C(c1cc(OC)c(O)cc1Cl)NCC2 (stereo unspecified)
viability index: 0.626
//
compound: CCN(CC)CCNc1ncnc2c1[nH]c1ccc(Br)cc12
viability index: 0.396
//
compound: CCOc1ccc(-c2nonc2NC(=O)c2cccc(C)c2)cc1OCC
viability index: 0.626
//
compound: CCCN(CCC)CC(O)COc1ccccc1C(=O)Nc1ccccc1 (stereo unspecified)
viability index: 0.516
//
compound: CCc1ccc(Nc2cc(C)nc3nc(C)nn23)cc1
viability index: 1.1
//
compound: CC1=C(CC(=O)c2cccc([N+](=O)[O-])c2)C(=O)c2ccccc2C1=O
viability index: 0.234
//
compound: COc1cccc(NC(=O)[C@H](C(C)C)n2c(=O)[nH]c3ccccc3c2=O)c1
viability index: 0.341

* * *

- Tested on: Plasmodium falciparum NF54 gametocytes
- experiment summary: viability index relative to DMSO control (fraction); higher = less gametocyte killing
- stated conditions: gametocyte stage: Stage V viability index; 12.5 µM; incubation time: 72 h
Field: label. Allowed values: yes (viability index < 0.8) or no (viability index >= 0.8).

compound: O=C(Nc1nc(-c2ccccn2)cs1)c1ccccc1Br
class: yes
--
compound: COc1ccc(C(=O)Nc2nonc2-c2ccc(OC)c(OC)c2)cc1Cl
class: yes
--
compound: CCN1CCN(Cc2ccc(NC(=O)c3cc4ccc5cccnc5c4[nH]3)cc2)CC1
class: no
--
compound: Cc1cccc(N2C(=O)C3C(C2=O)C2(c4ccccc4)C(=O)C3(c3ccccc3)C(c3ccc4c(c3)OCO4)=C2c2ccc3c(c2)OCO3)c1 (stereo not drawn)
class: no
--
compound: CC(NCc1ccccc1)c1cc(Cl)ccc1O (stereo not drawn)
class: no
--
compound: CC1CC(C)CN(C(=O)c2ccc(Cl)cc2Cl)C1 (stereo not drawn)
class: no
--
compound: CCOC(=O)C1=CN(C)C=C(C(=O)OCC)C1c1cc(Br)c(OCC)c(OC)c1
class: yes
--
compound: O=C(Nc1ccc(Cl)c(Cl)c1)Nc1ccc(Cl)c(Cl)c1
class: yes
--
compound: COc1ccc(CCN2C(=O)c3[nH]nc(-c4cc(Cl)c(C)cc4O)c3C2c2ccccc2F)cc1 (stereo not drawn)
class: yes
--
compound: O=C(Nc1ccccc1O)c1ccc(Oc2cccc(C(=O)Nc3ccccc3O)c2)cc1
class: yes
--
compound: CCC(c1ccccc1)c1nn2c(-c3cccs3)nnc2s1 (stereo not drawn)
class: yes
--
compound: CCN(CC)c1ccc(NC(=O)c2cccs2)cc1
class: no
--
compound: c1ccc(Cn2c(N=Nc3c(Nc4ccccc4)ccc4ccccc34)nc3ccccc32)cc1
class: yes
--
compound: CN(C)c1ccc(-c2nc3cc(N)ccc3[nH]2)cc1
class: yes
--
compound: CCCCN(CCCC)S(=O)(=O)c1ccc(NC(=O)c2ccco2)cc1
class: no
--
compound: O=C(Nc1ccc(CN2CCOCC2)cc1)c1ccc(-c2cc(Cl)ccc2Cl)o1
class: no
--
compound: OC(CNC1CCCCC1)Cn1c2ccccc2c2ccccc21 (stereo not drawn)
class: yes
--
compound: Cc1cc(NC(=O)c2cccc(C(F)(F)F)c2)n(-c2nc(-c3ccc4c(c3)OCO4)cs2)n1
class: no
--
compound: CN(C)c1ccc(N2C(N)=NC(N)=NC2(C)C)cc1
class: no
--
compound: Cc1[nH]c(-c2ccc(F)cc2)cc1C(=O)NC1CCN(Cc2ccccc2)CC1
class: no
--
compound: Cc1ccc(C(=O)c2oc3ccc4c(C)cc(=O)oc4c3c2C)cc1
class: no
--
compound: CCOc1ccc(-c2nc(NC(=O)c3cccc(S(C)(=O)=O)c3)sc2C)cc1
class: no
--
compound: CC(C)CNC(=O)c1c(N)n(CCc2ccccc2F)c2nc3ccccc3nc12
class: yes
--
compound: O=C(CSc1nccn2nc(-c3ccccc3)cc12)Nc1cc(C(F)(F)F)ccc1Cl
class: no
--
compound: COc1ccc2sc(N(Cc3cccnc3)C(=O)c3ccc(C#N)cc3)nc2c1
class: no
--
compound: CC1(c2ccccc2)Nc2ccccc2-c2nc3ccccc3n21 (stereo not drawn)
class: yes
--
compound: Cc1ccc(C2CC(C(F)(F)F)n3nc(C(=O)N4CCN(C(c5ccccc5)c5ccccc5)CC4)cc3N2)cc1 (stereo not drawn)
class: no
--
compound: OC(CNCc1ccccc1)Cn1c2ccccc2c2ccccc21 (stereo not drawn)
class: yes
--
compound: O=C(Nc1ccc(F)c(Cl)c1)Nc1ccc(Cl)c(Cl)c1
class: yes
--
compound: Cc1cccc(Nc2nc(N)c3ccccc3n2)c1
class: yes
--
compound: CCOc1c(Cl)cc(CNCC(O)c2ccccc2)cc1OC (stereo not drawn)
class: yes
--
compound: O=C(NC1CCN(Cc2ccccc2)CC1)c1cc(C(=O)NC2CCN(Cc3ccccc3)CC2)cc(C(=O)NC2CCN(Cc3ccccc3)CC2)c1
class: yes
--
compound: CC1CCN(Cc2ccc(NC(=O)c3cc4ccc5cccnc5c4[nH]3)cc2)CC1
class: yes
--
compound: CC(=O)Nc1nnc(SCc2c(C)cc(C(C)(C)C)cc2C)s1
class: no
--
compound: CCCCc1c(CCC)c(=N)c2ccccc2n1C
class: yes
--
compound: COc1ccc(Br)cc1C1Nc2ccc3ccccc3c2C2=C1C(=O)CC(c1ccccc1)C2 (stereo not drawn)
class: no
--
compound: COc1ccc2nc(N)nc(C)c2c1
class: no
--
compound: O=C(CCc1ccccc1)c1ccccc1OCC(O)CN1CCCCC1 (stereo not drawn)
class: yes
--
compound: CCOC(=O)C1CCN(C(=O)CN2C(=O)c3ccccc3C2c2c[nH]c3ccccc23)CC1 (stereo not drawn)
class: no
--
compound: Clc1ccc2c(N3CCCC3)ccnc2c1
class: no
--
compound: Cc1ccc(Nc2nc(-c3ccccn3)cs2)cc1
class: yes
--
compound: CCOc1ccc2nc(C)cc(Nc3ccc(N(C)C)cc3)c2c1
class: no
